- SYSTEM UNDER TEST: DLG2_2, Q15700
- Sequence (Q15700 189-283): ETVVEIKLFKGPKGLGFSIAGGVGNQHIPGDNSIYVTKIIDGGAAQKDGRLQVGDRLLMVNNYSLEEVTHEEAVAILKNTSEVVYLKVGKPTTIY
- ASSAY REMARKS: holdup assay
- Set-up: key: below the threshold = too weak to quantify, mostly under pKd 3.1 to 4
- CONDITION DESCRIPTION: plain residues with an end cap or a label only (N-terminal biotin on a linker: ttds)

[
  {
    "BINDER": "DKDPHSETAL [TMIGD1, Q6UXZ0]",
    "pKd": "below the threshold"
  },
  {
    "BINDER": "KKYVDAETSL [SLC4A7, Q9Y6M7]",
    "pKd": "below the threshold"
  },
  {
    "BINDER": "RPLPRKVSQL [DOCK4, Q8N1I0]",
    "pKd": "below the threshold"
  }
]
